EXPERIMENTAL SYSTEM: Glycogen Phosphorylase (rabbit muscle) (Oryctolagus cuniculus)
Sequence (P00489 2-843 limits assumed): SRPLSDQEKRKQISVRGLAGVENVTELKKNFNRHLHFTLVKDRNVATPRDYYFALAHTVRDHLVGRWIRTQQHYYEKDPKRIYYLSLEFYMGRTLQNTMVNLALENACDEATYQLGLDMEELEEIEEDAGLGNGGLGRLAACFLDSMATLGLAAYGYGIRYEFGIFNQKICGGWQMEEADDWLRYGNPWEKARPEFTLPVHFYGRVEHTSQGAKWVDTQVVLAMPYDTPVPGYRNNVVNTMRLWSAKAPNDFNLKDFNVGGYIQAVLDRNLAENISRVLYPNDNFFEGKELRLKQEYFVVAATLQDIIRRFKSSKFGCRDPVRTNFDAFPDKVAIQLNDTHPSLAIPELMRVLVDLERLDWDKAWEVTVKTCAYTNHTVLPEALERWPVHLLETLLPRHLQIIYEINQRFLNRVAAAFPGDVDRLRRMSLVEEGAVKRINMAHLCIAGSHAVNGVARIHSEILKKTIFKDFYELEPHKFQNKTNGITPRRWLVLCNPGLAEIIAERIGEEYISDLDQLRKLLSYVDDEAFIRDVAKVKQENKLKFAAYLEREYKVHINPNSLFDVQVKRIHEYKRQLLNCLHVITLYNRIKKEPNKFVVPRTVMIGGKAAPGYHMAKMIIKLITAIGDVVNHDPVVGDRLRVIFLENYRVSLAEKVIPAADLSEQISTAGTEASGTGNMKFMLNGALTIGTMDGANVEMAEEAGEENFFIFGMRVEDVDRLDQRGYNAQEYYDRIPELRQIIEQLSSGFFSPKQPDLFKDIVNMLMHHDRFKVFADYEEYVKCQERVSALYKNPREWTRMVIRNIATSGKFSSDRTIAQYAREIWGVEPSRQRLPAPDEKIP
ASSAY TEXT: AMP site/enzyme selectivity: glycogen phosphorylase
pEC50: −log10 of the molar value.
QUANTITY: pEC50

Quick check: pEC50 of "Nc1ncnc2c1nc(-c1ccc(P(=O)(O)O)o1)n2CCc1ccccc1" ?
< 3.60

----------
Consider the following molecules and their measured IC50 readings.
EXPERIMENTAL SYSTEM: Adenylate Kinase (rabbit muscle) (Oryctolagus cuniculus, UniProt P00569)
Sequence (P00569 whole entry): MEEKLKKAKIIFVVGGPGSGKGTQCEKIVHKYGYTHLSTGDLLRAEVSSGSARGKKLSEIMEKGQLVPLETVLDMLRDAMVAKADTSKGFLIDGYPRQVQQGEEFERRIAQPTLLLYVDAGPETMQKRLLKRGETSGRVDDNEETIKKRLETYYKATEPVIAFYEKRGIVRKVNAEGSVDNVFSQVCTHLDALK
ASSAY TEXT: AMP site/enzyme selectivity: adenylate kinase
CONDITION SUMMARY: selectivity table; read-out: Adenylate Kinase (inh.)

# MOLECULE, IC50
records = [
    ("Nc1ncnc2c1nc(-c1ccc(P(=O)(O)O)o1)n2CCc1ccccc1 [Compound 2.1]", "> 500 µM"),
]

Now look at this one.
Item under review: CC(C)(C)Cn1c(-c2ccc(P(=O)(O)O)o2)nc2c(N)ncnc21 [Compound 2.7] . Reported IC50?
> 500 µM

----------
Tested on: rat hepatocytes
ASSAY TEXT: Inhibition of gluconeogenesis (glucose production from lactate/pyruvate) in rat hepatocytes
Assay type: cell-based
CONDITION SUMMARY: from lactate/pyruvate, isolated rat hepatocytes
Readings of IC50 for the listed molecules
Answer format: numeric, µM implied, no suffix.

# MOLECULE, IC50 / µM
data = [
    ("CC(C)C(=O)OCOP(=O)(OCOC(=O)C(C)C)c1ccc(-c2nc3c(N)ncnc3n2CC(C)(C)C)o1 [Compound 16.4]", 3),
]

Now let's try a different one.
# lookup: IC50 of CC(C)Cn1c(-c2ccc(P(=O)(O)O)o2)nc2c(N)ncnc21 [Compound 2.6]
18

----------
EXPERIMENTAL SYSTEM: human liver FBPase (Homo sapiens, UniProt P09467)
Sequence (P09467 2-338 limits assumed): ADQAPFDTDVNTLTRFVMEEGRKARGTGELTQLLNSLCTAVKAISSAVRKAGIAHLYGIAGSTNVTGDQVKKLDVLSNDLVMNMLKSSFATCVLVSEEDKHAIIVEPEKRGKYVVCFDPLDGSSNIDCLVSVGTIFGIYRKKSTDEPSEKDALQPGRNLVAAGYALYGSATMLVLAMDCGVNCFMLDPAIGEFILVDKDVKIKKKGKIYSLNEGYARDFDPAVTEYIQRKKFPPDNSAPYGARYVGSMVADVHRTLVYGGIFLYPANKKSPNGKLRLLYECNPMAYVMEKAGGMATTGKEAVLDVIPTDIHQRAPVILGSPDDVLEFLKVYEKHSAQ
QUANTITY: pIC50
The value called pIC50 is obtained by taking minus log10 of the concentration in mol/L.

Some molecules with known pIC50 results, for comparison:
# MOLECULE, QUANTITY, RESULT NUMBER
data = [
    ("NC(=O)c1ncn([C@@H]2O[C@H](COP(=O)(O)O)[C@@H](O)[C@H]2O)c1N [ZMP, reference compound]", "pIC50", 4.92),
    ("CC(C)(C)Cn1c(-c2oc(P(=O)(O)O)c(Cl)c2Cl)nc2c(N)ncnc21", "pIC50", 4.89),
]

Let us examine a further case.
Requested field: pIC50. Item: "CC(C)(C)Cn1c(COCP(=O)(O)O)nc2c(N)ncnc21"
5.00

----------
ASSAY TEXT: Analysis of drug levels in plasma and liver of rats
Format: in vivo, rat
CONDITION SUMMARY: Sprague-Dawley, rat, plasma, ip, 20 mg/kg; 20 mgs/kg intraperitoneally, one hour post injection; read-out: drug level in plasma
QUANTITY: concentration at 1 h (µM)
Give just the numeric value; µM need not be written.

Which concentration at 1 h is listed for "CC(C)(C)Cn1c(-c2ccc(P(=O)(O)O)o2)nc2c(N)ncnc21" ?
38.5
